// data source = ChEMBL document CHEMBL4325876

# Lookup of reported IC50 keyed by entry
Test system: THP-1
Test: Cytotoxicity against human THP1 cells assessed as inhibition of cell proliferation after 72 hrs by MTT assay
Format: functional, cell-based
Settings: THP-1, 72 h
Number only, in µM; omit the unit.

[
  {
    "smiles_representation": "CCCSc1nc(N2CCOCC2)c2nc(/C=C/C(=O)c3cccc(OC)n3)n(Cc3ccccc3)c2n1",
    "IC50 (µM)": 9.73
  }
]

Would you kindly share the measured IC50 for CCCSc1nc(N2CCOCC2)c2nc(/C=C/C(=O)c3ccc(C)cc3)n(Cc3ccccc3)c2n1 ?
2.76

====

Test system: THP-1
Test: Cytotoxicity against human THP1 cells assessed as inhibition of cell proliferation after 72 hrs by MTT assay
Assay type: functional, cell-based
Details: THP-1, 72 h
As shown below, each of these compounds has a reported IC50 value.

Below: 5 compounds and their reported IC50.
[
  {
    "smiles_representation": "CCCSc1nc(N2CCOCC2)c2nc(/C=C/C(=O)c3ccccc3Cl)n(Cc3ccccc3)c2n1",
    "IC50": "9.73 µM"
  },
  {
    "smiles_representation": "CCCSc1nc(N2CCOCC2)c2nc(/C=C/C(=O)c3ccc(-c4ccccc4)cc3)n(Cc3ccccc3)c2n1",
    "IC50": "> 32 µM"
  },
  {
    "smiles_representation": "CCCSc1nc(NCc2ccccc2)c2nc(/C=C/C(=O)c3ccc(C)cc3)n(Cc3ccccc3)c2n1",
    "IC50": "> 32 µM"
  },
  {
    "smiles_representation": "CCCSc1nc(N2CCOCC2)c2nc(/C=C/C(=O)c3ccc(C)cc3)n(CCCc3ccccc3)c2n1",
    "IC50": "26.2 µM"
  },
  {
    "smiles_representation": "CCCSc1nc(N2CCOCC2)c2nc(/C=C/C(=O)c3ccc(Br)cc3)n(Cc3ccccc3)c2n1",
    "IC50": "11.4 µM"
  }
]

What value of IC50 has been reported for the following compound? CCCSc1nc(N2CCOCC2)c2nc(/C=C/C(=O)c3ccc(OC)cc3)n(Cc3ccccc3)c2n1
2.52 µM

Sample CCCSc1nc(N2CCOCC2)c2nc(/C=C/C(=O)c3ccc(C)cc3)n(CC3CCCCC3)c2n1 — what was its IC50?
3.83 µM

If you can, please state the reported IC50 value of CCCSc1nc(N2CCCCC2)c2nc(/C=C/C(=O)c3ccc(C)cc3)n(Cc3ccccc3)c2n1 .
> 32 µM

====

Below, each entry is listed with its recorded IC50.
Test system: GES1
Experiment: Cytotoxicity against human GES-1 cells assessed as inhibition of cell proliferation after 72 hrs by MTT assay
Format: cell-based
Details: GES1, 72 h
Your answer should be a plain number; it is taken to be in µM.

Sample CCCSc1nc(N2CCOCC2)c2nc(/C=C/C(=O)c3ccc(C)cc3)n(CCCc3ccccc3)c2n1 — what was its IC50?
23.4

Fill in the blank: the reported IC50 of CCCSc1nc(Cl)c2c(n1)N(Cc1ccccc1)C(C(=O)NCCCc1ccccc1)N2 (stereo not drawn) is ____.
24.9

Report IC50 for CCCSc1nc(N2CCOCC2)c2nc(/C=C/C(=O)c3ccccc3)n(Cc3ccccc3)c2n1 please.
35.6

====

Tested on: THP-1
Experiment: Cytotoxicity against human THP1 cells assessed as inhibition of cell proliferation after 72 hrs by MTT assay
Format: functional, cell-based
Conditions: THP-1, 72 h
assay_readout: IC50 (µM)
Write the number in µM without appending the unit.

[
  {
    "smiles_representation": "CCCSc1nc(N2CCOCC2)c2nc(/C=C/C(=O)c3ccc(Cl)cc3)n(Cc3ccccc3)c2n1",
    "tested_on": "THP-1",
    "reading": 3.71
  }
]

Shifting focus to the compound that follows.
Quick check: IC50 on THP-1, item CCCSc1nc(N2CCOCC2)c2nc(/C=C/C(=O)c3ccccc3)n(Cc3ccccc3)c2n1 ?
1.41
